Assay: protein stability index of a GFP-peptide fusion (yeast GPS) (PSI 1-4); higher = more stable; sorted into four equal gates, so the index is relative within each strain
Details: pdr5∆
assay-endpoint: protein stability index
Could you respond with only the numeric value?

Use the examples below as a reference point.
[[record]]
sequence_data = "LAKYRDAGKIDKHLYHV [RPL19A]"
assay_endpoint = "protein stability index"
experimental_value = 3.39

[[record]]
sequence_data = "HNMLNLLIHRKGLTYLH [PRP8]"
assay_endpoint = "protein stability index"
experimental_value = 1.45

[[record]]
sequence_data = "GKHNLTIWCVCDSYLDA [BRR2]"
assay_endpoint = "protein stability index"
experimental_value = 2.26

[[record]]
sequence_data = "IQKEEEPENNTVIEGVK [SWI3]"
assay_endpoint = "protein stability index"
experimental_value = 3.06


For the sequence VDENETVLESLGRLNKL [LIN1] , give its measured protein stability index value.
3.03

For the sequence KLEEESKRGNDKKHFNN [RPC53] , give its measured protein stability index value.
3.15

For the sequence EDSMIMNQSSIDRGLFR [RPB2] , give its measured protein stability index value.
2.61

For the sequence LAFAKLVHSEYLINGKR [SRP68] , give its measured protein stability index value.
2.5

----------
Assay: protein stability index of a GFP-peptide fusion (yeast GPS) (PSI 1-4); higher = more stable; sorted into four equal gates, so the index is relative within each strain
Details: ubr1∆
Collected protein stability index values appear next to each entry.

Use the examples below as a reference point.
[[record]]
sequence_data = "TPQQLQMIQQRHQQLLR [SNF5]"
assay_endpoint = "protein stability index"
experimental_value = 1.74

[[record]]
sequence_data = "PPETKLPYPTYWSDKKA [SNF5]"
assay_endpoint = "protein stability index"
experimental_value = 2.86


For the sequence SSPTLATGFGAHMANPL [PRE4] , give its measured protein stability index value.
2.65

For the sequence RPLPQWIRLRTNNTIRY [RPL39] , give its measured protein stability index value.
1.62

For the sequence LATYCPRVQGFYVPQAR [GRR1] , give its measured protein stability index value.
3

----------
Assay: protein stability index of a GFP-peptide fusion (yeast GPS) (PSI 1-4); higher = more stable; sorted into four equal gates, so the index is relative within each strain
Conditions: san1∆
assay-endpoint: protein stability index
Could you respond with only the numeric value?

[[record]]
sequence_data = "VEHLLRDVRDQAAGGLS [RPN8]"
experimental_value = 2.81

[[record]]
sequence_data = "SSQPLEPLSDTEEPDLA [DSN1]"
experimental_value = 3.25

[[record]]
sequence_data = "MALNKVLITDHIEKLEN [CDC53]"
experimental_value = 2.15


For the sequence QNFAEFMTKLLEVANDL [IRR1] , give its measured protein stability index value.
3.13

For the sequence PLKYAPHLPFSKSENPV [SWI3] , give its measured protein stability index value.
2.66

For the sequence TRELAEEGYSGVEVRVT [RPS3] , give its measured protein stability index value.
2.67

For the sequence KQVLDVDPVYKDVAKPT [FAS2] , give its measured protein stability index value.
3.08

For the sequence AAPLLALLRENQDSVKT [RPN2] , give its measured protein stability index value.
3

For the sequence RSDSYMLHKVLENKADP [RPT6] , give its measured protein stability index value.
2.93

For the sequence LQVSEKDLFELERYYKE [ARP7] , give its measured protein stability index value.
3.48

For the sequence GSAELRNSYPASFYSVN [RPN3] , give its measured protein stability index value.
2.87

For the sequence TRIQYVDFACCTNLTNR [GRR1] , give its measured protein stability index value.
2.58

For the sequence PKYAKQKDKSDTYKRFK [ISW2] , give its measured protein stability index value.
3.13

For the sequence FAEENITHKLTKNDAGS [BRR2] , give its measured protein stability index value.
2.88

For the sequence LPVNIRRIIQNAQQTFH [RPO21] , give its measured protein stability index value.
2.64
